biological target: E3 ubiquitin-protein ligase XIAP (Homo sapiens, UniProt P98170)
Sequence (P98170 whole entry): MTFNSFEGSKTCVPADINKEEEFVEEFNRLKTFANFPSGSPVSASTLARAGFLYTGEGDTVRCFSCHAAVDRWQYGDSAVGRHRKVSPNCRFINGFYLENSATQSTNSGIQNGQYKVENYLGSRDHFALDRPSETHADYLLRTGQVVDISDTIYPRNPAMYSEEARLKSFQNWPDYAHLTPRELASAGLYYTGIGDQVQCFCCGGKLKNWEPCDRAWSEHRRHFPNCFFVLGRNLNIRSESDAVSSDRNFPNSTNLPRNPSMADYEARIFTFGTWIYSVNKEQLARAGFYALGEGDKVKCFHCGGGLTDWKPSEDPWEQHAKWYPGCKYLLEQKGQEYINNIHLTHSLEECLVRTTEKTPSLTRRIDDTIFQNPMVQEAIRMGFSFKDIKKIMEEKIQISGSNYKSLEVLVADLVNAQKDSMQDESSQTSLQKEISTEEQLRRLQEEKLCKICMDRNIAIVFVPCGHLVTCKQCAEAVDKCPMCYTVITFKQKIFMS
pIC50: −log10 of the molar value.
reported_metric: pIC50

[[record]]
molecule = "CN[C@@H](C)C(=O)N[C@H]1CN(C(=O)CC(C)C)CC[C@H]2CC[C@@H](C(=O)NC(c3ccccc3)c3ccccc3)N2C1=O [XEVINAPANT]"
result_number = 7.38


* * *

biological target: E3 ubiquitin-protein ligase XIAP (Homo sapiens)
pIC50: −log10 of the molar value.
reported_metric: pIC50

[[record]]
smiles_representation = "CN[C@@H](C)C(=O)N[C@H]1CN(C(=O)CC(C)C)CC[C@H]2CC[C@@H](C(=O)NC(c3ccccc3)c3ccccc3)N2C1=O"
result_number = 7.32


* * *

target: Baculoviral IAP repeat-containing protein 3 (Homo sapiens); test: Inhibition of N-terminal 6x-His-tagged recombinant human cIAP2-BIR3 (244 to 349 residues) expressed in Escherichia coli incubated for 2 hrs after 6 hrs pre-incubation with enzyme by biotinylated AVPI peptide based DELFIA
reported_metric: IC50 (nM)

[[record]]
molecule = "CN[C@@H](C)C(=O)N[C@H]1CN(C(=O)CC(C)C)CC[C@H]2CC[C@@H](C(=O)NC(c3ccccc3)c3ccccc3)N2C1=O [XEVINAPANT]"
result_number = 133


* * *

target: Baculoviral IAP repeat-containing protein 3 (Homo sapiens, UniProt Q13489); assay: Inhibition of N-terminal 6x-His-tagged recombinant human cIAP2-BIR3 (244 to 349 residues) expressed in Escherichia coli incubated for 2 hrs without 6 hrs pre-incubation with enzyme by biotinylated AVPI peptide based DELFIA
Sequence (Q13489 whole entry, the tested form may be a part): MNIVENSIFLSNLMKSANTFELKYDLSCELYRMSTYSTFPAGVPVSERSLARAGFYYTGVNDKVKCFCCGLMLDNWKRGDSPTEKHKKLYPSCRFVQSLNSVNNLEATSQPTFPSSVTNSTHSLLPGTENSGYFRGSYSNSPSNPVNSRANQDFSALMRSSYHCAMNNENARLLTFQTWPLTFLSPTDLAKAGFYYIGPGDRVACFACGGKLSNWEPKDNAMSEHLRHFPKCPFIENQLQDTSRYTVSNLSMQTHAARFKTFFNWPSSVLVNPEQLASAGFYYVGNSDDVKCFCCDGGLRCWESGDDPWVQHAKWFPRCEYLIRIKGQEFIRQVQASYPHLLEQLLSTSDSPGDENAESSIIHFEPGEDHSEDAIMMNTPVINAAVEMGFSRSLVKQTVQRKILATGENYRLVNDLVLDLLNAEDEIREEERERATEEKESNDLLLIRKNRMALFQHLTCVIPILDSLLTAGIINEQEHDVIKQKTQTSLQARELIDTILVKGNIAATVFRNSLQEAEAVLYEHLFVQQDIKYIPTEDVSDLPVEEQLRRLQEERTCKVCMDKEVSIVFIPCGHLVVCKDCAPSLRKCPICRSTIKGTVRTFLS
reported_metric: IC50 (µM)

[[record]]
smiles_representation = "CN[C@@H](C)C(=O)N[C@H]1CN(C(=O)CC(C)C)CC[C@H]2CC[C@@H](C(=O)NC(c3ccccc3)c3ccccc3)N2C1=O"
reported_metric = "IC50"
units_label = "µM"
result_number = 0.044

